assay: Acceptable daily intake (ADI) value and highest daily doses calculated from it; conditions: child weighing 10 kg, four sachets a day
Where a SMILES comes first, the peptide text is derived from it.
# Lookup of reported Highest dose/sachet keyed by entry
Numbers only here, please. The scale is mg.

Worked examples, 3 compounds total:
{"Compound": "COC(=O)[C@H](Cc1ccccc1)NC(=O)[C@@H](N)CC(=O)O [Aspartame] (H-Asp-Phe-OMe)", "Quantity": "Highest dose/sachet", "Measure Unit": "mg", "Numeric Result": 100.0}
{"Compound": "CC1=CC(=O)NS(=O)(=O)O1 [Acesulfame potassium]", "Quantity": "Highest dose/sachet", "Measure Unit": "mg", "Numeric Result": 37.5}
{"Compound": "O=S(=O)([O-])NC1CCCCC1.[Na+] [Sodium cyclamate]", "Quantity": "Highest dose/sachet", "Measure Unit": "mg", "Numeric Result": 27.5}

Now turn to the next compound.
Input line: # query: Highest dose/sachet of entry O=C1NS(=O)(=O)c2ccccc21.[Na] [Saccharin sodium]
Output line: 12.5

meta.source: patent US20100298242A1
